Experiment: solvent given as SMILES
Conditions: in CCCCCCCCCCCC
Field: solvation free energy, 298 K. Provide a value for each of the molecules that follow.
Answers are plain numbers, in kcal/mol.

Illustrative cases are given below, each with its answer.
| Smiles | Unit text | Endpoint result |
| --- | --- | --- |
| CCC1CCCCC1 | kcal/mol | -5.21 |
| O | kcal/mol | -0.44 |
| CCCC | kcal/mol | -2.32 |

Consider now this further molecule.
Q: Reported solvation free energy, 298 K, molecule CCC : ____
A: -1.54

---

Experiment: solvent given as SMILES
Conditions: in CCCO
In plain terms, low solvation free energy, 298 K, meaning strictly below -5 kcal/mol, gives yes, and everything else gives no.

| Compound | Class |
| --- | --- |
| C(=Cc1ccccc1)c1ccccc1 | yes |
| CCC | no |
| O=C1OC(C(O)CO)C(O)=C1O (stereo not given) | yes |
| C1COCCO1 | no |
| CCOc1ccc(NC(C)=O)cc1 | yes |

Q: For O=C(c1ccccc1)C(O)c1ccccc1 (stereo not given) , is the recorded solvation free energy, 298 K below the cut-off of -5 kcal/mol?
A: yes

Q: // next record COc1ccc2cc(C(C)C(=O)O)ccc2c1 (stereo not given)
A: yes

Q: // next record O
A: no

Q: // next record Cc1cccnc1
A: yes

Q: // next record [HH]
A: no

Q: // next record CCCCCCCCCCO
A: yes

Q: // next record FC(F)(F)C(F)(F)C(F)(F)C(F)(F)C(F)(F)C(F)(F)F
A: no

---

Assay: solvent given as SMILES
Conditions: in CCCO
Field: solvation free energy, 298 K. Provide a value for each of the compounds that follow.
Numbers only, in kcal/mol.

Illustrative cases are given below, each with its answer.
| Compound | Endpoint result |
| --- | --- |
| CCC1CCCCC1 | -4.55 |
| Cc1cccc(C(=O)O)c1 | -10.3 |
| c1ccc2c(c1)ccc1ccccc12 | -9.96 |

Hello, I would appreciate it if you could give solvation free energy, 298 K for each entry below.
1. CC(C)(C)Br
2. Cc1c(C(=O)O)cc([N+](=O)[O-])cc1[N+](=O)[O-]
3. CF

A:
1. -3.19
2. -16.2
3. 0.03

Hello, I would appreciate it if you could give solvation free energy, 298 K for each entry below.
1. O=C(O)c1ccccc1O
2. CCC(C)CCC(C)C (stereo not drawn)
3. O=[N+]([O-])c1cccc(Cl)c1Cl
4. CCCCCCCCCCCCCCCCCCCCCCCCCCCC
5. CCCC
6. O=C(O)c1ccc(O)cc1
7. COc1ccccc1C(=O)O
8. O=C(O)c1ccccc1

A:
-10.3
-4.64
-8.65
-16.4
-1.98
-11.5
-11.2
-9.6

Hello, I would appreciate it if you could give solvation free energy, 298 K for each entry below.
1. C=CC=C
2. N
3. CCCCCl
4. CCCl

A:
-2.16
-2.4
-3.59
-2.54

---

Field: solvation free energy, 298 K. Provide a value for each of the compounds that follow.
Experiment: solvent given as SMILES
Conditions: in OCc1ccccc1
Answers are plain numbers, in kcal/mol.

| Smiles | solvation free energy, 298 K, kcal/mol |
| --- | --- |
| C1COCCO1 | -5.42 |
| CCC | -0.84 |
| CC(C)C | -1.16 |
| CC1CCCC1 | -3.01 |
| CCC1CCCCC1 | -4.14 |
| C=CC(=C)C | -2.56 |
| CCCC | -1.51 |

Q: Reported solvation free energy, 298 K, compound C=CC=C : ____
A: -1.95
